molecular target: mouse melanocortin-4 receptor (mouse, UniProt P56450 1-332); test: radioligand binding
Sequence (P56450 whole entry): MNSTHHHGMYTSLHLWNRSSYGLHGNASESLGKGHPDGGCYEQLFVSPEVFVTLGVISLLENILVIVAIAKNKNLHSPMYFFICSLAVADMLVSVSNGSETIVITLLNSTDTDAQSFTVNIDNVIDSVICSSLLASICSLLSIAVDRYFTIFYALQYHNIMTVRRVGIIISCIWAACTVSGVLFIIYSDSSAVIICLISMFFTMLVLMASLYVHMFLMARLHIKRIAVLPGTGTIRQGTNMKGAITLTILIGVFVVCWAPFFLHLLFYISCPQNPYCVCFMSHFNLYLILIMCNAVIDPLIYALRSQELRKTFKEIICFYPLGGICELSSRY
Non-standard residues stand in square brackets, D forms with d. dPhe(4-I) = N[C@H](Cc1ccc(I)cc1)C(=O)O; d2Nal = N[C@H](Cc1ccc2ccccc2c1)C(=O)O; Bta = N[C@@H](Cc1csc2ccccc12)C(=O)O; Tic = O=C(O)[C@@H]1Cc2ccccc2CN1
// log10(IC50) lookup, one value per entry
On a log10 scale: recorded IC50, unit nM.

Some binders with recorded log10(IC50):
BINDER	log10(IC50)
RRFX (HELM PEPTIDE1{[ac].R.R.[O=C([C@@H](Cc1ccc(I)cc1)N[*:1])[*:2]].[Tic].[am]}$$$$V2.0; SMILES CC(=O)N[C@@H](CCCNC(=N)N)C(=O)N[C@@H](CCCNC(=N)N)C(=O)N[C@H](Cc1ccc(I)cc1)C(=O)N1Cc2ccccc2C[C@H]1C(N)=O) [Ac-Arg-Arg-(pI)DPhe-Tic-NH2]	1.11
Ac-FR[dPhe(4-I)][Bta]-NH2 [compound 15]	2.93
Ac-RR[dPhe(4-I)][Bta]-NH2 [compound 10]	1.97
HRFX (HELM PEPTIDE1{[ac].H.R.[O=C([C@@H](Cc1ccc(I)cc1)N[*:1])[*:2]].[Tic].[am]}$$$$V2.0; SMILES CC(=O)N[C@@H](Cc1c[nH]cn1)C(=O)N[C@@H](CCCNC(=N)N)C(=O)N[C@H](Cc1ccc(I)cc1)C(=O)N1Cc2ccccc2C[C@H]1C(N)=O) [Ac-His-Arg-(pI)DPhe-Tic-NH2]	1.92
Ac-[d2Nal]R[dPhe(4-I)][Tic]-NH2 [compound 24]	1.63
Ac-FR[dPhe(4-I)][Tic]-NH2 [compound 22]	2.13
Ac-RR[dPhe(4-I)][d2Nal]-NH2 [Ac-Arg-Arg-(pI)DPhe-DNal(2′)-NH2]	2.34

Proceed to the following item.
I am curious: what log10(IC50) value has been reported for Ac-HR[dPhe(4-I)][Bta]-NH2 [compound 11] ?
2.44
